target.or.system: HLA-A*02:01
run.description: IEDB peptide-MHC binding, purified MHC/competitive/fluorescence; filed as Kd, often an IC50 or EC50 that approximates it; bounds were set here for any values at or beyond the usual limits of such assays
recorded.conditions: source organism: Orthohantavirus andesense
measure.name: Kd

GET /values?readout=Kd&item= VFTSRIQVI
≥ 20 µM

* * *

target.or.system: HLA-B*83:01
run.description: IEDB peptide-MHC binding, purified MHC/competitive/fluorescence; filed as Kd, often an IC50 or EC50 that approximates it; bounds were set here for any values at or beyond the usual limits of such assays
recorded.conditions: source organism: Yellow fever virus
pKd: −log10 of the molar value.
List of pKd values.

[[record]]
biosequence = "RRRLRTLVL"
val = "≤ 5.30"


Field: next sequence
I'm curious: which pKd was measured for MWHVTRGAF tested on HLA-B*83:01?
≤ 5.30
